Study System: C5 (Homo sapiens, UniProt P01031)
Sequence (P01031 19-1676): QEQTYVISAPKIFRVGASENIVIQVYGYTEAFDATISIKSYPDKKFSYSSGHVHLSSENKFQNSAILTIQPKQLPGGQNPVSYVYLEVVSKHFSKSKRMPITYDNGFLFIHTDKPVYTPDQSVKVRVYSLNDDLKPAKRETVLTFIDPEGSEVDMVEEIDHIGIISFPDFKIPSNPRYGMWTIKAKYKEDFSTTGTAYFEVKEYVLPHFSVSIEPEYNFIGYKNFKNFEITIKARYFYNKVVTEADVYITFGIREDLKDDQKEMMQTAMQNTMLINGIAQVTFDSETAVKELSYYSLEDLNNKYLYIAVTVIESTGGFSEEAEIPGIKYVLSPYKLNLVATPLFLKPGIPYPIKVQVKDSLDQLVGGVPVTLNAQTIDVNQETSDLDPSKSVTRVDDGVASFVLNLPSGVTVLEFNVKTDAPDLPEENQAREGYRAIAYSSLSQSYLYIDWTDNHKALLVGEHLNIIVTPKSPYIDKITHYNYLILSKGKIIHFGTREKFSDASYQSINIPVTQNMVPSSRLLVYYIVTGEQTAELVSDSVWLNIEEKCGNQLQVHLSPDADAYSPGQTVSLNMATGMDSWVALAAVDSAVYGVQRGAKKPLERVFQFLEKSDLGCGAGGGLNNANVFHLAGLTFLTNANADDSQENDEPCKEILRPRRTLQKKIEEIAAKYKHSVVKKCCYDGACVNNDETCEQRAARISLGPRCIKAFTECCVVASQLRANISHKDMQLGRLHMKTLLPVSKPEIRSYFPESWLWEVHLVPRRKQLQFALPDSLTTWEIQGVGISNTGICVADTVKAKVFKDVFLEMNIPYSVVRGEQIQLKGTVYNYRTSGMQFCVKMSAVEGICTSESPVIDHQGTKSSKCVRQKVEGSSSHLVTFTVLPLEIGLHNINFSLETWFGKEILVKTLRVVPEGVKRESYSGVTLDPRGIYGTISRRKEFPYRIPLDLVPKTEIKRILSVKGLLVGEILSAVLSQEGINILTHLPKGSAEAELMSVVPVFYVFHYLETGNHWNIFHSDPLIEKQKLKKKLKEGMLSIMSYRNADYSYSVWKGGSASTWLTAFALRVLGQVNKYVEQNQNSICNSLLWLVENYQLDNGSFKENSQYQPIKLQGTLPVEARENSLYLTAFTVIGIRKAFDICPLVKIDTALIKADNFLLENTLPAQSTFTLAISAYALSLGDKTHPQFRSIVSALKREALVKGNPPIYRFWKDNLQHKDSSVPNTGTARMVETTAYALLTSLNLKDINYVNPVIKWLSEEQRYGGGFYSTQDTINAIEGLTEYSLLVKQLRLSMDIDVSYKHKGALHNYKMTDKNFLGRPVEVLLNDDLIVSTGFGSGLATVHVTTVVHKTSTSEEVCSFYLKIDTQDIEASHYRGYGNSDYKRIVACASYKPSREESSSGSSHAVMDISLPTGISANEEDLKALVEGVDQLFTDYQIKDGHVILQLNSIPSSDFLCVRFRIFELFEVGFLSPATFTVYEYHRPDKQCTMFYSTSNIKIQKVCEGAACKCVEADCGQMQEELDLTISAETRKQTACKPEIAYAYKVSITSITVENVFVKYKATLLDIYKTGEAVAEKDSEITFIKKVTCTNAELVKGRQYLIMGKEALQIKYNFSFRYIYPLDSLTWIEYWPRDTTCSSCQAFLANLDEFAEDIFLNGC
Experimental Protocol: Biacore (SPR) single-cycle kinetics on immobilised C5
Type: binding
Condition Set: C5 binding, Biacore, n = 3 independent experiments
Could you mark each record 1 (yes) if its Mean Kon falls strictly under 500000, and 0 (no) if it equals or exceeds it?

INSERT INTO results (molecule, label_class) VALUES
  ('hC3Nb1 Loop 3 (protein, left off: a dimerising Fc or GST) VHH: QVQLVETGGGLVQAGGSLRLSCAASGSIFSLNAMGWFRQAPGKEREFVATINRSGGRTYYADSVKGSGGGSGCPPGYKSGVDCSPGSECKWGCYAVDGRRYGGYGADSGVSGGGSRFTISRDNGKNMVYLQMHSLKPEDTAIYYCAAGTGWSPQTDNEYNYWGQGTQVTVSS', '1 (yes)'),
  ('hC3Nb1 C-Term (protein, left off: a dimerising Fc or GST) VHH: QVQLVETGGGLVQAGGSLRLSCAASGSIFSLNAMGWFRQAPGKEREFVATINRSGGRTYYADSVKGRFTISRDNGKNMVYLQMHSLKPEDTAIYYCAAGTGWSPQTDNEYNYWGQGTQVTVSSGGGSGCPPGYKSGVDCSPGSECKWGCYAVDGRRYGGYGADSGV', '1 (yes)'),
  ('hC3Nb1Loop2ΔP (protein, left off: a dimerising Fc or GST) VHH: QVQLVETGGGLVQAGGSLRLSCAASGSIFSLNAMGWFRQASGGGSGCPPGYKSGVDCSPGSECKWGCYAVDGRRYGGYGADSGVSGGGSKEREFVATINRSGGRTYYADSVKGRFTISRDNGKNMVYLQMHSLKPEDTAIYYCAAGTGWSPQTDNEYNYWGQGTQVTVSS', '1 (yes)'),
  ('hC3Nb1 Loop 2 (protein, left off: a dimerising Fc or GST) VHH: QVQLVETGGGLVQAGGSLRLSCAASGSIFSLNAMGWFRQAPSGGGSGCPPGYKSGVDCSPGSECKWGCYAVDGRRYGGYGADSGVSGGGSKEREFVATINRSGGRTYYADSVKGRFTISRDNGKNMVYLQMHSLKPEDTAIYYCAAGTGWSPQTDNEYNYWGQGTQVTVSS', '1 (yes)'),
  ('hC3Nb1 N-Term (protein, left off: a dimerising Fc or GST) VHH: TTVHQRTIKSGCPPGYKSGVDCSPGSECKWGCYAVDGRRYGGYGADSGVGSTYTHEFYVDAWGQGSSSSGSSSSGQVQLVETGGGLVQAGGSLRLSCAASGSIFSLNAMGWFRQAPGKEREFVATINRSGGRTYYADSVKGRFTISRDNGKNMVYLQMHSLKPEDTAIYYCAAGTGWSPQTDNEYNYWGQGTQVTVSS', '0 (no)');
